Experiment: qHTS Assay for inhibitors of the human cytomegalovirus (HCMV); note: % is set by controls: 0 for no effect and ±100 for the full control effect
Conditions: HFF cells, HCMV-luciferase reporter, 72 h; at 57.5 µM; stronger effect = lower value
Out of some 410,000 compounds screened, about 18,000 (4.4%) were called active. About 7% were inconclusive and are not listed. For the sample, actives were picked, then their nearest neighbours and some compounds at random.
measured.metric: activity change, negative = inhibition (%)
Give just the number in %; leave the unit off.

Some entries whose results are on file:
{"mol": "O=S(=O)([N-]c1nc2ccccc2nc1-[n+]1ccc(Cc2ccccc2)cc1)c1ccc(Br)s1", "measured.metric": "activity change, negative = inhibition", "meas.value": -110}
{"mol": "CCCCNC(=O)c1onc(CSc2cccc(OC)c2)c1C(=O)O", "measured.metric": "activity change, negative = inhibition", "meas.value": 31.1}
{"mol": "CCCSc1nc2sc3c(c2c(=O)n1-c1cccc(Br)c1)CC(C)(C)OC3", "measured.metric": "activity change, negative = inhibition", "meas.value": -0.221}
{"mol": "O=C(CCSCc1ccccc1F)N1CCN(c2ccc(Cl)cc2)CC1", "measured.metric": "activity change, negative = inhibition", "meas.value": -29.1}

As a next step, examine the molecule that follows.
[Q] State, in one line, measured activity change, negative = inhibition of CC/C(C)=N/Nc1nc2sc3c(c2c(=O)[nH]1)CC(C)(C)OC3
[A] -10.6

---

Test: qHTS Assay for inhibitors of the human cytomegalovirus (HCMV); note: % is set by controls: 0 for no effect and ±100 for the full control effect
Conditions: HFF cells, HCMV-luciferase reporter, 72 h; at 57.5 µM
Among all 410,000 compounds or so, about 18,000 (4.4%) were called active. Another 7% or so got no clear call; they are omitted. Rule as the data show it: active = activity change below about -60%; inconclusive = no clear call, values can overlap the other calls; inactive = above about -39%. The full list was thinned out, with actives kept by preference.
Hello, when you answer, please use one of the following outcomes: active, inactive

[Q] Per the assay record, what outcome was assigned to CCC(=O)c1ccc(OCC(=O)N2CCN(CC(=O)Nc3ccc(C)cc3)CC2)cc1 ?
[A] inactive

[Q] Per the assay record, what outcome was assigned to Cc1cc(NC(=O)COn2nnc3ccccc32)no1 ?
[A] inactive

---

Assay: qHTS Assay for inhibitors of the human cytomegalovirus (HCMV); note: % is set by controls: 0 for no effect and ±100 for the full control effect
Conditions: HFF cells, HCMV-luciferase reporter, 72 h; at 57.5 µM; stronger effect = lower value
Description: NCGC Assay Overview: Infection with human cytomegalovirus (HCMV) continues to pose significant threats for pregnant women and immunocompromised hosts. […] This is a cell-based assay for HCMV inhibition in HFFs cells. […] At 72 h post infection cell lysates were collected and luciferase activity was determined using the Glomax-Multi + Detection System (Promega, Madison, WI). […]
About 18,000 (4.4%) of roughly 410,000 compounds were called active. Another 7% or so got no clear call; they are omitted. This excerpt belongs to a sample that is enriched for actives.
measured.metric: activity change, negative = inhibition (%)
Give just the number in %; leave the unit off.

Some entries whose results are on file:
{"compound": "COc1cccc(C(c2c(O)cc(C)n(Cc3ccco3)c2=O)N2CCN(c3ccccc3)CC2)c1 (centres undefined)", "meas.value": 7.72}
{"compound": "CCc1ccccc1NC(=O)Cn1c(=O)n(CC2CCC(C(=O)NCCc3ccccc3)CC2)c(=O)c2ccccc21 (centres undefined)", "meas.value": 17.8}
{"compound": "CCc1nn(CC(=O)NCC(C)c2ccccc2)c(=O)c2cc3occc3n12 (centres undefined)", "meas.value": -13.6}
{"compound": "CC(C)(C)OC(=O)N1CCC(c2c(C(=O)Nc3ccc4c(c3)OCO4)cnn2-c2ccccc2)CC1", "meas.value": -8.71}
{"compound": "CCc1ccc(NC(=O)c2cc(S(=O)(=O)N3CCCC(C)C3)cn2C)cc1 (centres undefined)", "meas.value": -13.1}
{"compound": "COc1ccc(S(=O)(=O)N2CCCC(C(=O)Nc3ccc(NC(=O)c4ccccn4)cc3)C2)cc1 (centres undefined)", "meas.value": 62.8}
{"compound": "COc1cc(NC(=O)CSc2nc3nc(C)c(Cc4ccc(C)cc4)c(C)n3n2)cc(OC)c1OC", "meas.value": 0}
{"compound": "Cc1nc2ccccc2c(-c2ccccc2)c1C(=O)c1ccccc1", "meas.value": -104}

[Q] State, in one line, measured activity change, negative = inhibition of Cc1ccc(CN2CCC(CNC(=O)c3cnn(-c4ccc(C)cc4)c3C3CCN(C(=O)OC(C)(C)C)CC3)CC2)cc1
[A] 0

---

Assay: qHTS Assay for inhibitors of the human cytomegalovirus (HCMV); note: % is set by controls: 0 for no effect and ±100 for the full control effect
Conditions: HFF cells, HCMV-luciferase reporter, 72 h; at 57.5 µM
Out of some 410,000 compounds screened, about 18,000 (4.4%) were called active. About 7% were inconclusive and are not listed. No stated cut-off is given here; in the data, active means activity change below about -60%; inconclusive means no clear call, values can overlap the other calls; inactive means above about -39%. The list comes from a sample in which actives are over-represented; it also holds close analogues and randomly drawn compounds.
Hello, when you answer, please use one of the following outcomes: class 1 = active, class 0 = inactive

Past entries and their recorded results:
{"compound": "CCNC(=O)c1cc2n(n1)CCCN(Cc1ccc(C)cc1)C2=O", "label": "class 0"}
{"compound": "COc1ccc(CCNC(=O)Cn2c(=O)n(-c3ccccc3)c(=O)c3c(C)c(C)sc32)cc1OC", "label": "class 0"}
{"compound": "Fc1ccccc1OCCCCn1cncn1", "label": "class 0"}
{"compound": "CC(C)c1ccc(Nc2ncccc2C#N)cc1", "label": "class 0"}
{"compound": "CCC(C(=O)Nc1cc(OC)ccc1OC)n1c(=O)c(C(F)(F)F)nc2ccccc21 (stereo unspecified)", "label": "class 0"}

Note: attention shifts to another entry.
[Q] Per the assay record, what outcome was assigned to O=c1c2ccccc2ncn1CCCCOc1ccccc1F ?
[A] class 1

---

Experiment: qHTS Assay for inhibitors of the human cytomegalovirus (HCMV); note: % is set by controls: 0 for no effect and ±100 for the full control effect
Conditions: HFF cells, HCMV-luciferase reporter, 72 h; at 57.5 µM; stronger effect = lower value
The campaign covered roughly 410,000 compounds. About 18,000 (4.4%) were called active. Inconclusive results (about 7%) are left out. For the sample, actives were picked, then their nearest neighbours and some compounds at random.
Collected activity change, negative = inhibition values appear next to each entry.
Give just the number in %; leave the unit off.

{"compound": "Clc1ccc2nc(-c3ccccc3)nc(C(Cl)Cl)c2c1", "activity change, negative = inhibition / %": -78.3}
{"compound": "Nc1nc(NCC2CCCO2)nc(Nc2ccccc2F)c1[N+](=O)[O-] (configuration not stated)", "activity change, negative = inhibition / %": -34.2}
{"compound": "COc1ccc(C(=O)Nc2cccc(C(=O)OCc3cc(=O)n4c5c(sc4n3)CCCC5)c2)cc1", "activity change, negative = inhibition / %": -36}

[Q] State, in one line, measured activity change, negative = inhibition of CCOc1ccc(N(CC)S(=O)(=O)N2CCCC(C(=O)NCc3ccc(Cl)cc3)C2)cc1 (configuration not stated)
[A] -15.9

[Q] State, in one line, measured activity change, negative = inhibition of Cn1c(=O)sc2cc(NS(=O)(=O)c3ccc(C(C)(C)C)cc3)ccc21
[A] -1.79

[Q] State, in one line, measured activity change, negative = inhibition of COc1ccc2c(c1)C=C(C(=O)NCc1cc(Br)ccc1OC)CO2
[A] -22.6

[Q] State, in one line, measured activity change, negative = inhibition of Cc1ccc(NC(=O)c2cn3c4c(ccc(Cl)c4c2=O)OC(C)C3)cc1C (configuration not stated)
[A] 0.532

[Q] State, in one line, measured activity change, negative = inhibition of CC1CCC(C(C)C)C(=O)/C1=C\c1ccc(NC(=O)CCC(=O)O)cc1 (configuration not stated)
[A] -26.4

---

Assay: qHTS Assay for inhibitors of the human cytomegalovirus (HCMV); note: % is set by controls: 0 for no effect and ±100 for the full control effect
Conditions: HFF cells, HCMV-luciferase reporter, 72 h; at 57.5 µM
Out of some 410,000 compounds screened, about 18,000 (4.4%) were called active. Roughly 7% stayed inconclusive and do not appear here. Cut-off read from the data, not from the text of the source: active = activity change below about -60%; inconclusive = no clear call, values can overlap the other calls; inactive = above about -39%. The full list was thinned out, with actives kept by preference.
Hello, when you answer, please use one of the following outcomes: yes = active, no = inactive

Past entries and their recorded results:
{"compound": "CCC(=O)Nc1ccc(C)cc1-c1nc2ccccc2n(Cc2ccccc2)c1=O", "label": "no"}
{"compound": "Cc1cccc(NC(=O)C2CCN(S(=O)(=O)c3c(C)noc3/C=C/c3ccco3)CC2)c1", "label": "no"}
{"compound": "CCOc1ccccc1C(=O)Nc1ccc2c(c1)N(C)C(=O)c1ccccc1S2", "label": "no"}
{"compound": "CC(=O)c1sc(N2C(=O)c3oc4ccccc4c(=O)c3C2c2ccc(C)cc2)nc1C (stereo unspecified)", "label": "no"}
{"compound": "Cc1cccc(NC(=O)Cn2c(C(F)(F)F)nc3ccccc32)c1C", "label": "no"}
{"compound": "Cc1ccc(OCC(O)CN2CCN(CC(O)COc3ccc(C)cc3Cl)CC2)c(Cl)c1 (stereo unspecified)", "label": "no"}

[Q] Per the assay record, what outcome was assigned to Cc1noc(/C=C/c2ccco2)c1S(=O)(=O)N1CCC(C(=O)N2CCc3ccccc32)CC1 ?
[A] no

[Q] Per the assay record, what outcome was assigned to CCNS(=O)(=O)c1ccc(CCC(=O)N2CCN(c3cc(Cl)ccc3C)CC2)cc1 ?
[A] yes

[Q] Per the assay record, what outcome was assigned to CCCNS(=O)(=O)c1ccc(CCC(=O)N2CCCC2)cc1 ?
[A] no

[Q] Per the assay record, what outcome was assigned to CC(C)CCN(C(=O)c1csnn1)C(C(=O)NC1CCCC1)c1ccccc1 (stereo unspecified) ?
[A] no

[Q] Per the assay record, what outcome was assigned to CCOCCn1ccc2c(OCC(=O)NCc3ccc(C)cc3)cccc2c1=O ?
[A] no
